# TARGET OR TEST SYSTEM: human PF4 (Homo sapiens)
# Construct: PF4 is a 70 amino acid, lysine-rich 7.8 kDa platelet-specific protein; made in house; host or cells: Escherichia coli BL21DE3 pLysS (pT7-7) and/or Drosophila S2 cells
# Sequence (P02776 32-101): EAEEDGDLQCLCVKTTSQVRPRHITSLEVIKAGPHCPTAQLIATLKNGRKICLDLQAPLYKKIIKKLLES
# EXPERIMENT NOTES: Inhibition of PF4 tetramer formation (BS3 cross-linking, SDS-PAGE)
# Type: biochemical
# CONDITIONS: 1 μM inhibitor; read-out: % inhibition of PF4 tetramer formation at single concentration of inhibitor
MEASURED PARAMETER: inhibition at 1 µM (%)
Return type: number; implicit unit %.

Reference set, count: 3
>  <COMPOUND>
CN(CC(=O)C1C(=O)c2ccc(C#Cc3ccc4c(c3)C(=O)C(C(=O)CN(C)C(=O)OC(C)(C)C)C4=O)cc2C1=O)C(=O)OC(C)(C)C (stereo not drawn) [Example 320]

>  <TARGET OR TEST SYSTEM>
human PF4 (Homo sapiens)

>  <inhibition at 1 µM / %>
12

$$$$
>  <COMPOUND>
CC(C)C[C@@H](N)C(=O)C1C(=O)c2ccc(Oc3ccc4c(c3)C(=O)C(C(=O)[C@H](N)CC(C)C)C4=O)cc2C1=O (stereo partly drawn) [Example 357]

>  <TARGET OR TEST SYSTEM>
human PF4 (Homo sapiens)

>  <inhibition at 1 µM / %>
39

$$$$
>  <COMPOUND>
O=C(O)CNC(=O)C1C(=O)c2ccc(Oc3ccc4c(c3)C(=O)C(C(=O)NCC(=O)O)C4=O)cc2C1=O (stereo not drawn) [Example 307]

>  <TARGET OR TEST SYSTEM>
human PF4 (Homo sapiens)

>  <inhibition at 1 µM / %>
15

$$$$

Recorded inhibition at 1 µM of CSCC[C@H](NC(=O)OC(C)(C)C)C(=O)C1C(=O)c2ccc(Oc3ccc4c(c3)C(=O)C(C(=O)[C@H](CCSC)NC(=O)OC(C)(C)C)C4=O)cc2C1=O (stereo partly drawn) [Example 270] , please.
10

Recorded inhibition at 1 µM of O=C1c2ccc(Oc3ccc4c(c3)C(=O)C(C(=O)C3CCC3)C4=O)cc2C(=O)C1C(=O)C1CCC1 (stereo not drawn) [Example 297] , please.
38

Recorded inhibition at 1 µM of C[C@H](NC(=O)C1C(=O)c2ccc(Oc3ccc4c(c3)C(=O)C(C(=O)N[C@@H](C)C(=O)O)C4=O)cc2C1=O)C(=O)O (stereo partly drawn) [Example 313] , please.
31
